From: patent US20180305408A1

tested on: Human Hematopoietic Stem Cells; test: Differentiation of human hematopoietic stem cells: loss of stemness marker CD-34+ (immunostaining); format: cell-based; conditions: compound in cell media solution, 400 ng/mL, 48 hours
No end group written: not given here.
Rule: YES for CD34+ Expression (%) not less than 40%, NO for anything less.

Q) Test whether the substance VPTAAEPLTMLYYEIVRKKPIFEQLSNMVEHSDDMGVPT (also: cyclic, ring not given here) [SEQ ID NO: 744] records CD34+ Expression (%) of 40% or higher.
A) NO

Q) Input VSQAARPVQTRKIDDMGVPTKKATVAAVKSDDMGVPT (also: cyclic, ring not given here) [SEQ ID NO: 741]
A) NO

Q) Param item: IPKASSAPVGQRPVQMRKIDKGVVTYKKATVSSVEESGSLDKGVVTY (also: cyclic, ring type not given here) [SEQ ID NO: 739]
A) NO

Q) Input KASSSRVKMSNITVQ1MRIKPHOGQHIGEMSVVEEHASGSHDKGVVTY (KASSSRVKMSNITVQIMRIKPHQGQHIGEMSVVEEHASGSHDKGVVTY; not fully specified (residue 23); printed as KASSSRVKMSNITVQ1MRIKPHOGQHIGEMSVVEEHASGSHDKGVVTY; also: cyclic, ring type not given here) [SEQ ID NO: 743]
A) YES

Q) Check EPSSSRVRLEPLTTLYYGGGGGGGEQLSNVVEEHSKDKGVVTY (also: cyclic, ring type not given here) [SEQ ID NO: 745] too.
A) NO

Q) Repeat for the following substance: PTSSAPTDLRSVKMAKVEIVRKKPIFKEVQVDMVVKASGDKGVVTY (also: cyclic, ring type not given here) [SEQ ID NO: 742]
A) NO

###

tested on: Human Hematopoietic Stem Cells; experiment: Differentiation of human hematopoietic stem cells: loss of stemness marker CD-34+ (immunostaining); format: cell-based; details: compound in cell media solution, 400 ng/mL, 48 hours
No end group written: not given here.
value-type: CD34+ Expression (%)
The figure you give is taken to be in %; do not add the unit.

KASSVPQEERPVQMRKIGGGGGGGKKATVMIVRSSKSSDDMGVPT (also: cyclic, ring type not given here) [SEQ ID NO: 740]    31

Q) Requested field: CD34+ Expression (%). Item: EPSSVSQAAEPLPIVYYRIKPHOGQHEQLSNMIVKSSKSSDDMGVPT [SEQ ID NO: 747]
A) 38

Q) Would you kindly repeat that for APVKMEPLPTVYYDDMGVPTEQLSNDMVEESGSLDDMGVPT (also: cyclic, ring type not given here) [SEQ ID NO: 746] ?
A) 37

###

test system: hMSCs; experiment: Loss of stemness: STRO-1 immunostaining of hMSCs cultured with compounds in solution; type: cell-based, Human; details: compound in cell culture media solution, 400 ng/mL added every 24 h, 96 h
No end group written: not given here.
# note: exactly 20% is not below, so it is not satisfied; use satisfied for STRO-1 Expression (%) after 96 h strictly under it

SRVAARSVKMAKVGGGGGGGKEVQVAAEEHGGGGGG (also: cyclic, ring not given here) [SEQ ID NO: 726]    not satisfied
APVAAKPLSMLYVDKGVVTYDHHKDAAVEEDEYDKVV (also: cyclic, ring type not given here) [SEQ ID NO: 722]    satisfied
VPTVVSAISTLYLRIKPHQGQHLKNYQVVVVENDKQQII (also: cyclic, ring not given here) [SEQ ID NO: 715]    not satisfied
TPTSSSPINTLYFDDMGVPTYGKIPSSVVDDEYDKVV (also: cyclic, ring not given here) [SEQ ID NO: 720]    satisfied
SRVLLRPVQMRKIDKGVVTYKKATVLLEEHDKGVVTY (also: cyclic, ring not given here) [SEQ ID NO: 729]    satisfied
TQVAARPVQTRKIDDMGVPTKKATVAAEDHDKGVVTY (also: cyclic, ring not given here) [SEQ ID NO: 730]    not satisfied
VPTAAEPISMLYLDEYDKVVKFKYEAAAVSNDKQQII (also: cyclic, ring not given here) [SEQ ID NO: 719]    satisfied
VPQQQEPLTTLYYDEYDKVVEQLSNQQVKSNDKQQII (also: cyclic, ring not given here) [SEQ ID NO: 724]    satisfied
VPTAASAISILYLDAANNVVLKNYQAAVVEDKGVVTY (also: cyclic, ring not given here) [SEQ ID NO: 713]    not satisfied
VPEAASSLSMLFFEIVRKKPIFLKVYPAATVEDKGVVTY (also: cyclic, ring not given here) [SEQ ID NO: 714]    satisfied

Q) Is STRO-1 Expression (%) after 96 h strictly under 20% for the entry VPTDDSATSTLYYDKGVVTYLRKHRDDEHSDKGVVTY (also: cyclic, ring not given here) [SEQ ID NO: 727] ?
A) satisfied

Q) Cool, now VPTVVSPISMLYIDDMGVPTYKQYEVVVVEDDMGVPT (also: cyclic, ring not given here) [SEQ ID NO: 721]
A) satisfied

Q) Subsequent entry: VPTGGEPLTTLYYNDKQQIIEQLSNGGEHSDDMGVPT (also: cyclic, ring not given here) [SEQ ID NO: 728]
A) satisfied

Q) # repeat for VPTSSSPISTLYIDKGVVTYLKYHYSSVAEDEYDKVV (also: cyclic, ring not given here) [SEQ ID NO: 718]
A) satisfied

Q) Again, but for APTGGSATSMLYYDKGVVTYLRKHRGGVVKDKGVVTY (also: cyclic, ring type not given here) [SEQ ID NO: 717]
A) satisfied
